tested on: KM12 colon; test: NCI tumour cell line growth inhibition, 48 h
Quick reference for GI50 among some compounds
measured-parameter: GI50

>>> assay_value("COCCOC(=O)C1=C(C)NC2=C(C(=O)CC(c3ccccc3OC)C2)C1c1cccc(O)c1 (stereo not drawn)")
"11.5 µM"
>>> assay_value("Cn1c(=O)cc2c3c(c(NCCCO)ccc31)C(=O)c1ccccc1-2")
"6.34 µM"
>>> assay_value("CCOC(=O)CC1(O)C=CC(=O)C=C1")
"0.33 µg/mL"
>>> assay_value("Cn1c(COC(=O)N2CCCCC2)nc2c(N3CCOCC3)nc(-c3ccccc3)nc21")
"1.46 µM"
>>> assay_value("O=C(COc1cccc(/C=C2\\COc3ccccc3C2=O)c1)Nc1nccs1")
"1.71 µM"
>>> assay_value("CCC[C@H](N[C@@H]1CCc2cc(F)cc(F)c2C1)C(=O)Nc1cn(C(C)(C)CNCC(C)(C)C)cn1")
"24.1 µM"
>>> assay_value("N#Cc1ccccc1C#C/C=C\\C#Cc1ccc(OCCCNC(=O)c2cc3ccccc3[nH]2)cc1")
"16.3 µM"
>>> assay_value("CN1C(=O)CNC(=O)[C@H](NC(=O)c2nc3ccccc3cc2O)CSSC[C@H]1C(=O)NCCc1nc2ccccc2cc1O")
"0.96 µM"

---

tested on: HS 578T breast; test: NCI tumour cell line growth inhibition, 48 h
measured-parameter: GI50

>>> assay_value("ClCCN(CCCl)c1ccc(-n2cnc3c(Cl)ncnc32)cc1")
"2950 nM"
>>> assay_value("COC(=O)CCC(=O)c1c(C)[nH]c(/C=C2\\N=C(c3ccc[nH]3)C=C2OC)c1C")
"1350 nM"
>>> assay_value("Brc1ccc([I+]c2ccc(Br)cc2)cc1")
"2960 nM"
>>> assay_value("O=C(COc1cccc(/C=C2\\COc3ccccc3C2=O)c1)Nc1nccs1")
"2670 nM"
>>> assay_value("CC1(C)N=C(N)N=C(N)N1c1ccc(F)c(C(F)(F)F)c1")
"21200 nM"
>>> assay_value("CS(=O)(=O)CCNCc1ccc(-c2ccc3ncnc(Nc4ccc(OCc5cccc(C(F)(F)F)c5)cc4)c3c2)o1")
"7020 nM"

---

system: NCI-H522 lung; assay: NCI tumour cell line growth inhibition, 48 h; in the data active means GI50 below about 0.43 µM; inactive means the rest
Outcomes: active, inactive

>>> class("COc1cc(CSc2nc3ccc(C)cc3c(=O)n2Cc2ccccc2)cc(OC)c1OC")
"active"
>>> class("Cn1c(COC(=O)N2CCCCC2)nc2c(N3CCOCC3)nc(-c3ccccc3)nc21")
"active"
>>> class("COc1cccc(/C=N\\Nc2ccc([N+](=O)[O-])cn2)c1O")
"inactive"
>>> class("O=C(Nc1cc(C(F)(F)F)ccc1F)Nc1n[nH]c2ccccc12")
"inactive"
>>> class("CCCN(CCC)c1ccc(CO)c(C)c1")
"inactive"

---

tested on: KM12 colon; assay: NCI tumour cell line growth inhibition, 48 h
Listing of entries alongside the reported TGI.
measured-parameter: TGI

>>> assay_value("Nc1ccc2c(c1)C(=O)c1c(F)cccc1-2")
"> 100 µM"
>>> assay_value("O=C(Nc1cc(C(F)(F)F)ccc1F)Nc1n[nH]c2ccccc12")
"> 100 µM"
>>> assay_value("CC(=O)[O-].CC(=O)[O-].O=C(N/N=C/c1cc(Cl)cc(Cl)c1[OH2+])c1ccncc1.[Co+2]")
"> 100 µM"
>>> assay_value("O=C1C2C=CC1C1C(=O)OC(=O)C21 (configuration not stated)")
"> 100 µM"
>>> assay_value("COC(OC)c1cccc2c1C1(O)CCC3(CC21)OCCCCO3 (configuration not stated)")
"> 100 µM"
>>> assay_value("O=C(O)C1C2CC3C(OC(=O)C31)C2Br (configuration not stated)")
"> 100 µM"
>>> assay_value("CCSC1=N/C(=C\\c2ccccc2O)C(Nc2ccc(C)cc2)=N1")
"> 100 µM"
>>> assay_value("CC(C)C(C/C=C1/CC(CO)(COC(=O)CC(C(C)C)C(C)C)OC1=O)C(C)C (configuration not stated)")
"21.6 µM"
>>> assay_value("Cc1c(C(=O)/C=C/c2ccc(Cl)cc2)[n+](=O)c2ccccc2n1[O-]")
"22.7 µM"
>>> assay_value("O=C(Cn1nc(Br)c(Br)c1Br)c1ccccc1")
"> 100 µM"
>>> assay_value("O=C1OC(c2ccc(O)c(-c3ccccc3)c2)(c2ccc(O)c(-c3ccccc3)c2)c2c(Cl)c(Cl)c(Cl)c(Cl)c21")
"> 100 µM"
>>> assay_value("O=C1c2cc3ccccc3cc2C2(c3ccc(Cl)cc3)N[C@H]3CCCC[C@@H]3N12 (some centres not stated)")
"48.2 µM"
>>> assay_value("CC(C)(C)c1ccc([I+]c2ccc(C(C)(C)C)cc2)cc1")
"2.83 µM"
>>> assay_value("O=C1/C(=C/c2ccccc2Cl)N=C(c2ccccc2)N1Cc1ccco1")
"> 100 µM"
>>> assay_value("COC(=O)CCC(=O)c1c(C)[nH]c(/C=C2\\N=C(c3ccc[nH]3)C=C2OC)c1C")
"1.72 µM"
>>> assay_value("O=S1(=O)CCN(Cc2ccccn2)CC1")
"> 100 µM"
>>> assay_value("COc1ccc2[nH]cc(-c3nc(-c4cn(C)c5ccncc45)cs3)c2c1")
"3.52 µM"
>>> assay_value("CCCCCCCCCCCCCCCc1cc(O)ccc1N")
"> 100 µM"
>>> assay_value("O=c1/c(=C/c2ccc(Cl)cc2Cl)sc2nc3ccccc3n12")
"> 100 µM"
>>> assay_value("Cn1c(=O)cc2c3c(c(NCCCO)ccc31)C(=O)c1ccccc1-2")
"> 100 µM"
>>> assay_value("N#Cc1[nH]c(=O)n(-c2ccc(Cl)cc2)c1N")
"> 10 µM"
>>> assay_value("COc1ccc2c(c1)c(C1(c3cn(C)c4ccc(OC)cc34)C(=O)Nc3ccc(F)cc31)cn2C")
"> 100 µM"

---

tested on: PC-3 prostate; experiment: NCI tumour cell line growth inhibition, 48 h
Measured TGI accompanies every entry in the list below.
measured-parameter: TGI (µM)

>>> assay_value("COc1cc(-c2[nH]ccc2Cl)oc1C1=C2N=C3C=C2C(C(C)C)C1CCCCCCCC3 (stereo unspecified)")
1.37
>>> assay_value("C=C(C=O)c1c2c(nc3ccccc13)C(=O)c1ccccc1C2=O")
10.6
>>> assay_value("N#Cc1ccccc1C#C/C=C\\C#Cc1ccc(OCCCNC(=O)c2cc3ccccc3[nH]2)cc1")
45.2
>>> assay_value("CCCCCCCCCCCCCCCc1cc(O)ccc1N")
10.6
>>> assay_value("CCN(CC)CCOc1ccc(/C=C2\\CC3C4CCC5=CC(=O)CC[C@]5(C)C4CC[C@]3(C)C2=O)cc1OC (stereo partly specified)")
13.9

---

tested on: NCI/ADR-RES ovarian; test: NCI tumour cell line growth inhibition, 48 h
measured-parameter: TGI (µM)

>>> assay_value("CCN(CC)c1ccc2c(c1)Oc1nc(N)c(C#N)c(N)c1C2Sc1ccc(SC)cc1 (stereo unspecified)")
6.13
>>> assay_value("CCCCCCCCCCCCCCCc1cc(O)ccc1N")
68.8
>>> assay_value("O=C1OCC(C#Cc2ccccc2)=C1Cl")
13.8
>>> assay_value("CCN(CC)CCOc1ccc(/C=C2\\CC3C4CCC5=CC(=O)CC[C@]5(C)C4CC[C@]3(C)C2=O)cc1OC (stereo partly specified)")
13

---

system: OVCAR-4 ovarian; test: NCI tumour cell line growth inhibition, 48 h
The following compounds are shown together with reported TGI values.
measured-parameter: TGI

>>> assay_value("CC(C)(C)c1ccc(CN2CCN(C(c3ccccc3)c3ccc(Cl)cc3)CC2)cc1 (configuration not stated)")
"> 100 µM"
>>> assay_value("N=C(N)SCCc1cn2ccccc2n1")
"> 100 µM"
>>> assay_value("CCOP(=O)(Nc1ccc(-c2ccccc2)cc1)OCC")
"> 100 µM"
>>> assay_value("O=C1NC2(CCCCC2)N=C2C(Cl)CCCC12Cl (configuration not stated)")
"> 100 µM"
>>> assay_value("COc1cccc(/C=N\\Nc2ccc([N+](=O)[O-])cn2)c1O")
"> 100 µM"
>>> assay_value("NC1C/C(=N\\O)c2c(I)sc(I)c21 (configuration not stated)")
"> 64.9 µM"
>>> assay_value("COc1ccc2c(c1)CC[C@@H]1[C@@H]2CC[C@@]2(C)[C@H]1CC1(CCCCC1)[C@@H]2O")
"28.7 µM"
>>> assay_value("CC(c1ccc(Br)cc1)C(C(=O)O)C(=O)O (configuration not stated)")
"> 100 µM"
>>> assay_value("O=c1c2ccc3cccc4c(=O)cc(c5ccccc15)-c2c34")
"> 100 µM"
>>> assay_value("NC1CC(=O)c2csc(Br)c21 (configuration not stated)")
"30.5 µM"
>>> assay_value("CCN(CC)CCOc1ccc(/C=C2\\CC3C4CCC5=CC(=O)CC[C@]5(C)C4CC[C@]3(C)C2=O)cc1OC (some centres not stated)")
"> 100 µM"
>>> assay_value("CC(=O)OC1CC2CCC1(C)C2(C)C (configuration not stated)")
"> 100 µM"
